What CE 50, spasms of isolated uterus of rat induced by serotonine was measured for each of the following?
# Tested on: isolated uterus, spasms induced by serotonine
# ASSAY COMMENT: Spasms of isolated uterus of rat induced by serotonine
# Set-up: species or system rat CD (Charles River)
# CONDITION LABEL: in vitro, isolated uterus of rat
Answers are plain numbers, in mg/L.

Guide cases for CE 50, spasms of isolated uterus of rat induced by serotonine, answers given:
compound="CC(C)Nc1nc(N2CCN(C)CC2)nc(Cl)c1Br [Example 2]" number=0.07
compound="Cc1ccc(N(C)c2nc(Cl)c(Br)c(NCCN(C(C)C)C(C)C)n2)cc1 [Example 9]" number=0.33
compound="CCCCCCCNc1nc(Cl)c(Br)c(N2CCN(C)CC2)n1 [Example 4]" number=0.35

// input: 3 compounds below; output: CE 50, spasms of isolated uterus of rat induced by serotonine for each
1. CC(C)Nc1nc(Cl)c(Br)c(N2CCN(C)CC2)n1 [Example 3]
2. CN1CCN(c2nc(N)nc(Cl)c2Br)CC1 [Example 6]
3. Cc1ccc(N(C)c2nc(Cl)c(Br)c(N3CCN(C)CC3)n2)cc1 [Example 7]

Result:
1. 0.004
2. 0.05
3. 0.05

====

# Tested on: isolated duodenum, spasms induced by acetylcholine
# ASSAY COMMENT: Spasms of the isolated duodenum of a rat induced by acetylcholine (neurotropic)
# Source text: The anti-spasmodic properties of the compounds according to the invention are shown by use of the technique of Magnus, R. (Ges. Physiol. 102, 123, 1904) in connection with the spasms of the isolated duodenum of a rat caused by either acetylcholine to research an effect of neurotropic type or by barium chloride to research an effect of musculotropic type. […]
QUANTITY: CE 50, concentration decreasing by 50% the amplitude of spasms induced by acetyl-choline (mg/L)
Numbers only, in mg/L.

Guide cases for CE 50, concentration decreasing by 50% the amplitude of spasms induced by acetyl-choline, answers given:
smiles_code=Cc1ccc(N(C)c2nc(Cl)c(Br)c(N3CCN(C)CC3)n2)cc1 number=1.4
smiles_code=CN1CCN(c2nc(N)nc(Cl)c2Br)CC1 number=4
smiles_code=CCCCCCCNc1nc(Cl)c(Br)c(N2CCN(C)CC2)n1 number=1.4
smiles_code=CC(C)Nc1nc(Cl)c(Br)c(N2CCN(C)CC2)n1 number=1.8

Now consider a different molecule.
Q: What CE 50, concentration decreasing by 50% the amplitude of spasms induced by acetyl-choline value was documented for this molecule, "CC(C)Nc1nc(N2CCN(C)CC2)nc(Cl)c1Br" ?
Result: 5.5

====

# Tested on: isolated duodenum, spasms induced by barium chloride
# ASSAY COMMENT: Spasms of the isolated duodenum of a rat induced by barium chloride (musculotropic)
QUANTITY: CE 50, concentration decreasing by 50% the amplitude of spasms induced by barium chloride (mg/L)
Give bare numbers, in mg/L.

Guide cases for CE 50, concentration decreasing by 50% the amplitude of spasms induced by barium chloride, answers given:
smiles_code=Cc1ccc(N(C)c2nc(Cl)c(Br)c(N3CCN(C)CC3)n2)cc1 assayed_system="isolated duodenum, spasms induced by barium chloride" unit_name=mg/L number=0.6
smiles_code=CCCCCCCNc1nc(Cl)c(Br)c(N2CCN(C)CC2)n1 assayed_system="isolated duodenum, spasms induced by barium chloride" unit_name=mg/L number=1.3
smiles_code=CC(C)Nc1nc(Cl)c(Br)c(N2CCN(C)CC2)n1 assayed_system="isolated duodenum, spasms induced by barium chloride" unit_name=mg/L number=0.6
smiles_code=CC(C)Nc1nc(N2CCN(C)CC2)nc(Cl)c1Br assayed_system="isolated duodenum, spasms induced by barium chloride" unit_name=mg/L number=3

Q: What CE 50, concentration decreasing by 50% the amplitude of spasms induced by barium chloride value was documented for this compound, "CN1CCN(c2nc(N)nc(Cl)c2Br)CC1" ?
Result: 0.2
